B1: MIA2 (parent)
chain: NSISSDKEATVPCTEILTEKKDTI

# Variants of: B1
# ASSAY_INFO: protein stability index of a GFP-peptide fusion (GPS, HEK-293T) (PSI 1-6); higher = more stable;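 note: lentivirally expressed fusions sorted by FACS into six bins by GFP to DsRed ratio, PSI derived from sequencing read proportions per bin multiplied by bin number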
# RUN_PARAMETERS: c terminus: a fixed tail appended
TEST_READOUT: protein stability index

| VARIANT_LABEL | REPORTED_MEASUREMENT |
| --- | --- |
| K21A | 5.37 |
| E15M | 4.68 |
| A9E | 5.28 |
| E15P | 5.16 |
| T10Q | 5.48 |
| S2W | 5.05 |
| S2L | 5.37 |
| E8G | 5.37 |
| P12D | 5.53 |
| A9W | 4.79 |
| D6S | 5.71 |
| D22H | 4.94 |
| D22C | 4.97 |
| I24F | 5.33 |
| P12C | 5.28 |
| I24M | 5.52 |
| I24T | 5.67 |
| T10R | 4.85 |
| D22Y | 4.53 |
| E8Q | 5.52 |
| S2R | 5.26 |
